System Under Test: human LILRB4 (human, UniProt Q8NHJ6 22-448)
Test: cell-based or functional assay
Observation Type: Fold change (Compared to isotype) (fold)
One number for each entry, in fold.

Check the records and state Fold change (Compared to isotype) for ch8-B3-F6-H8 (antibody, V domains shown) VH: EVKVIESGGGLVQPGGSLKLSCAASGFDFSRYWMSWVRQAPGKGLEWIGEINPDSSAINYTPSLKDKFIISRDNAKNTLYLQMSKVRSEDTALYYCATSMTMDYWGQGTSVTVSS VL: DIVMTQSPSSMYASLGERVTITCKASQDIKSYLSWYQQKPWKSPKTLIYYATSLADGVPSRFSGSGSGQDYSLTISSLESDDTATYYCLQHGESPYTFGGGTKLEK
12.4
